Entry source: patent US10821115B2

biological target: recombinant human Mcl-1 (residues 171-327) / Bim interaction (Homo sapiens (Human), UniProt Q07820); experiment: biochemical; assay type: binding; details: TR-FRET, Mcl-1(171-327) / biotin-Bim (51-76); read-out: Mcl-1 HTRF IC50
Sequence (Q07820 171-327): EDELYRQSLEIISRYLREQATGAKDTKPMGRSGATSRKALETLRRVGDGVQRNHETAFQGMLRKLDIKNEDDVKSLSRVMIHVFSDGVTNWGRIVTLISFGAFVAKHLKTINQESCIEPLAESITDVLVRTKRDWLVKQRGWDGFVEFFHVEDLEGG
reported_metric: IC50

Could you tell me which IC50 is on file for C[C@@H]1[C@@H](C)CCC[C@](CO)(OCCN2CCOCC2)[C@@H]2CC[C@H]2CN2C[C@@]3(CCCc4cc(Cl)ccc43)COc3ccc(cc32)C(=O)NS1(=O)=O [Example 100284] ?
0.285 nM

Requested field: IC50. Item: CO[C@@]1(C2SCCCS2)CCC[C@H](C)[C@@H](C)S(=O)(=O)NC(=O)c2ccc3c(c2)N(C[C@@H]2CC[C@H]21)C[C@@]1(CCCc2cc(Cl)ccc21)CO3 [Example 100254]
4.07 nM

Item CO[C@H](C)[C@]1(OC)/C=C/C[C@H](C)[C@@H](C)S(=O)(=O)NC(=O)c2ccc3c(c2)N(C[C@@H]2CC[C@H]21)C[C@@]1(CCCc2cc(Cl)ccc21)CO3 [Example 100473] has what recorded IC50?
0.974 nM

Requested read-out: IC50. Entry: C[C@@H]1[C@@H](C)CCC[C@@](O)(CS(=O)(=O)N(C)C(C)(C)C)[C@@H]2CC[C@H]2CN2C[C@@]3(CCCc4cc(Cl)ccc43)COc3ccc(cc32)C(=O)NS1(=O)=O [Example 100170]
12.1 nM

Please look up its IC50: CC#C[C@]1(OC)/C=C/C[C@H](C)[C@@H](C)S(=O)(=O)NC(=O)c2ccc3c(c2)N(C[C@@H]2CC[C@H]21)C[C@@]1(CCCc2cc(Cl)ccc21)CO3 [Example 100501]
0.09 nM

# query: IC50 of entry CO[C@@]1(C(F)F)/C=C/C[C@H](C)[C@@H](C)S(=O)(=O)NC(=O)c2ccc3c(c2)N(C[C@@H]2CC[C@H]21)C[C@@]1(CCCc2cc(Cl)ccc21)CO3 [Example 100071]
1.54 nM

For C[C@@H]1[C@@H](C)CCC[C@@](O)(C2CCN(C)CC2)[C@@H]2CC[C@H]2CN2C[C@@]3(CCCc4cc(Cl)ccc43)COc3ccc(cc32)C(=O)NS1(=O)=O [Example 100386] , what is its reported IC50?
4.02 nM

Using the record for C[C@@H]1[C@@H](C)C/C=C/[C@@](O)(C#CCN2CCS(=O)(=O)CC2)[C@@H]2CC[C@H]2CN2C[C@@]3(CCCc4cc(Cl)ccc43)COc3ccc(cc32)C(=O)NS1(=O)=O [Example 100389] , report its IC50.
0.101 nM

Please report the recorded IC50 for C[C@@H]1[C@@H](C)C/C=C/[C@](O)(CC(=O)N(C)c2ccccc2)[C@@H]2CC[C@H]2CN2C[C@@]3(CCCc4cc(Cl)ccc43)COc3ccc(cc32)C(=O)NS1(=O)=O (single isomer, unassigned) [Example 100248] .
11.1 nM

Name the reported IC50 value associated with the compound C[C@@H]1[C@@H](C)C/C=C/[C@](O)(c2cccc(F)n2)[C@@H]2CC[C@H]2CN2C[C@@]3(CCCc4cc(Cl)ccc43)COc3ccc(cc32)C(=O)NS1(=O)=O [Example 100331]
0.192 nM

Field request: IC50 | item: CO[C@]1(CCOS(C)(=O)=O)/C=C/C[C@H](C)[C@@H](C)S(=O)(=O)NC(=O)c2ccc3c(c2)N(C[C@@H]2CC[C@H]21)C[C@@]1(CCCc2cc(Cl)ccc21)CO3 [Example 100351]
0.115 nM

Need IC50 of CO[C@@]1(CC(=O)O)/C=C/C[C@H](C)[C@@H](C)S(=O)(=O)NC(=O)c2ccc3c(c2)N(C[C@@H]2CC[C@H]21)C[C@@]1(CCCc2cc(Cl)ccc21)CO3 [Example 100307] , thanks.
0.049 nM

Record request: IC50 value, item COc1cccc([C@]2(O)/C=C/C[C@H](C)[C@@H](C)S(=O)(=O)NC(=O)c3ccc4c(c3)N(C[C@@H]3CC[C@H]32)C[C@@]2(CCCc3cc(Cl)ccc32)CO4)n1 [Example 100191]
1.6 nM

Which measured IC50 value corresponds to CO[C@@]1(CC(C)=O)/C=C/C[C@H](C)[C@@H](C)S(=O)(=O)NC(=O)c2ccc3c(c2)N(C[C@@H]2CC[C@H]21)C[C@@]1(CCCc2cc(Cl)ccc21)CO3 [Example 100446] ?
0.126 nM

I'd like to know its IC50. The compound in question is C[C@@H]1[C@@H](C)CCC[C@@](O)(Cc2nccn2C)[C@@H]2CC[C@H]2CN2C[C@@]3(CCCc4cc(Cl)ccc43)COc3ccc(cc32)C(=O)NS1(=O)=O [Example 100163]
2.79 nM

Give its IC50 value. Item: C[C@@H]1[C@@H](C)C/C=C/[C@@](O)(c2ccccn2)[C@@H]2CC[C@H]2CN2C[C@@]3(CCCc4cc(Cl)ccc43)COc3ccc(cc32)C(=O)NS1(=O)=O (single isomer, unassigned) [Example 100181]
0.537 nM

# query: IC50 of entry COCC#C[C@@]1(OC)/C=C/C[C@H](C)[C@@H](C)S(=O)(=O)NC(=O)c2ccc3c(c2)N(C[C@@H]2CC[C@H]21)C[C@@]1(CCCc2cc(Cl)ccc21)CO3 [Example 100343]
2.51 nM
